assay: Caspase-3/7 induction in CHO-K1 cells by small molecules, qHTS assay (AID 1346980); conditions: CHO-K1 caspase-3/7 induction, Caspase-Glo luminescence, 17 h; series mostly up to 92.4 µM; also: nearly all actives have a fitted effect of over 15% in size
Calls of active or inactive are those of the source. Calls follow the shape of the dose curve; as a rule, active = well fitted activation curve with a large enough effect in the repeat runs; inconclusive = weak or mixed curves; inactive = flat fitted curve, though single readings scatter.
Reply using exactly one outcome from label 1 = active, label 0 = inactive

## Input Query: recorded result category for CC(=O)OCC(=O)NCCCOc1cccc(CN2CCCCC2)c1 in this test
## Output label 0

## Input Query: recorded result category for O=C(O)c1ccc(OCCCOc2ccc(C(=O)O)cc2)cc1 in this test
## Output label 0

## Input Query: recorded result category for O=C1c2ccccc2C(=O)c2c(O)c(O)cc(O)c21 in this test
## Output label 0

## Input Query: recorded result category for NC(=O)c1ccncc1 in this test
## Output label 0

## Input Query: recorded result category for CCCCCCCCCI in this test
## Output label 0

## Input Query: recorded result category for CCCCCCCCOc1ccc(C(=O)O)cc1 in this test
## Output label 0

## Input Query: recorded result category for CC(C)=CC(=O)C=C(C)C in this test
## Output label 0

## Input Query: recorded result category for CC(C)(c1ccccc1)c1ccccc1 in this test
## Output label 0

## Input Query: recorded result category for CCOC(=O)c1ccc(C#Cc2ccc3c(c2)C(C)(C)CCS3)nc1 in this test
## Output label 0

## Input Query: recorded result category for CC1(CN2CCC(n3c(=O)[nH]c4ccccc43)CC2)OCc2ccccc2-n2cccc21 (configuration not stated) in this test
## Output label 0

## Input Query: recorded result category for CCCCCCCC/C=C\CCCCCCCCO in this test
## Output label 0

## Input Query: recorded result category for CC(CO)CO in this test
## Output label 0

## Input Query: recorded result category for CCC(C)COC(C)=O (configuration not stated) in this test
## Output label 0

## Input Query: recorded result category for CCCCN(CCCC)C(C(N)=O)c1ccc(OC)cc1 (configuration not stated) in this test
## Output label 0

## Input Query: recorded result category for CO/N=C(/C(=O)N[C@@H]1C(=O)N2C(C(=O)O)=C(COC(N)=O)CS[C@H]12)c1ccco1 in this test
## Output label 0

## Input Query: recorded result category for O=C1Cc2cc(Cl)ccc2N1 in this test
## Output label 0

## Input Query: recorded result category for CC(=O)c1cc2ccccc2s1 in this test
## Output label 0

## Input Query: recorded result category for CN1CCCC(n2nc(Cc3ccc(Cl)cc3)c3ccccc3c2=O)CC1 (configuration not stated) in this test
## Output label 0

## Input Query: recorded result category for CC(=O)OCCN(CCOC(C)=O)c1ccc(N=Nc2ccc([N+](=O)[O-])cc2C#N)cc1 in this test
## Output label 0

## Input Query: recorded result category for O=c1cc(-c2ccccc2)oc2cc(O)cc(O)c12 in this test
## Output label 0

## Input Query: recorded result category for O=[N+]([O-])c1cc(C2CCCCC2)c(O)c([N+](=O)[O-])c1 in this test
## Output label 0

## Input Query: recorded result category for CCC=CC#N in this test
## Output label 0

## Input Query: recorded result category for Nc1cccc2c1CN(C1CCC(=O)NC1=O)C2=O (configuration not stated) in this test
## Output label 0

## Input Query: recorded result category for Cc1ccccc1S in this test
## Output label 0

## Input Query: recorded result category for CC(CCC(=O)O)C(=O)O (configuration not stated) in this test
## Output label 0

## Input Query: recorded result category for CN1CCCN=C1COC(=O)C(O)(c1ccccc1)C1CCCCC1 (configuration not stated) in this test
## Output label 0

## Input Query: recorded result category for CCC(=O)OC in this test
## Output label 0

## Input Query: recorded result category for CC(C)C[C@H](NC(=O)[C@H](CCc1ccccc1)NC(=O)CN1CCOCC1)C(=O)N[C@@H](Cc1ccccc1)C(=O)N[C@@H](CC(C)C)C(=O)[C@@]1(C)CO1 in this test
## Output label 1

## Input Query: recorded result category for O=C(OC(=O)c1ccccc1)c1ccccc1 in this test
## Output label 0

## Input Query: recorded result category for CN(C)CCN1C(=O)c2ccccc2N(C)c2ccccc21 in this test
## Output label 0

## Input Query: recorded result category for C1COC1 in this test
## Output label 0

## Input Query: recorded result category for Cc1cc(C)cc(N)c1 in this test
## Output label 0

## Input Query: recorded result category for CC(=O)NC1(c2cccc(F)c2)CCN(CC[C@@]2(c3ccc(Cl)c(Cl)c3)CN(c3ccccc3)C(=O)CO2)CC1 in this test
## Output label 1

## Input Query: recorded result category for C[C@@]12CCC[C@H]1[C@@H]1CC[C@H]3C[C@@H](O)CC[C@]3(C)[C@H]1CC2 in this test
## Output label 0

## Input Query: recorded result category for CC(=O)c1ccc([N+](=O)[O-])cc1 in this test
## Output label 0

## Input Query: recorded result category for CCOc1ccc(Cc2nccc3cc(OCC)c(OCC)cc23)cc1OCC in this test
## Output label 0

## Input Query: recorded result category for O=[N+]([O-])c1ccc(O/N=C/c2cc(Br)c(O)c(Br)c2)c([N+](=O)[O-])c1 in this test
## Output label 0

## Input Query: recorded result category for CC[C@]1(O)C[C@H]2CN(CCc3c([nH]c4ccccc34)[C@@](C(=O)OC)(c3cc4c(cc3OC)N(C=O)[C@H]3[C@@](O)(C(=O)OC)[C@H](OC(C)=O)[C@]5(CC)C=CCN6CC[C@]43[C@@H]65)C2)C1 in this test
## Output label 0

## Input Query: recorded result category for C=Cc1ccc(S(=O)(=O)O)cc1 in this test
## Output label 0

## Input Query: recorded result category for CCC(C)(C)OC in this test
## Output label 0

## Input Query: recorded result category for CC=C(Cl)Cl in this test
## Output label 0

## Input Query: recorded result category for CCCCCCCCCCC(=O)O in this test
## Output label 0

## Input Query: recorded result category for CC(C)=CCC/C(C)=C/CC/C(C)=C/C(=O)OCC(=O)[C@@]1(O)CC[C@H]2[C@@H]3CCC4=CC(=O)C=C[C@]4(C)[C@H]3[C@@H](O)C[C@@]21C in this test
## Output label 0

## Input Query: recorded result category for Cc1ccc(OC(=O)c2ccccc2O)cc1 in this test
## Output label 0

## Input Query: recorded result category for CCCCCCNC(=O)n1cc(F)c(=O)[nH]c1=O in this test
## Output label 0

## Input Query: recorded result category for C=C/C(C)=C/C/C=C(\C)CCC=C(C)C in this test
## Output label 0

## Input Query: recorded result category for Cc1cscn1 in this test
## Output label 0

## Input Query: recorded result category for Cc1cc(O)c(C)c(C)c1O in this test
## Output label 0

## Input Query: recorded result category for NCCNCCO in this test
## Output label 0

## Input Query: recorded result category for Nc1ncnc2c1ncn2[C@H]1CC[C@@H](CO)O1 in this test
## Output label 0

## Input Query: recorded result category for O=C(O)CCc1nc(-c2ccccc2)c(-c2ccccc2)o1 in this test
## Output label 0

## Input Query: recorded result category for CN1CCCC(CC2c3ccccc3Sc3ccccc32)C1 (configuration not stated) in this test
## Output label 0

Origin of measurements: PubChem BioAssay (Tox21)
